- Tested on: Gerste
- ASSAY_NAME: Growth inhibition in cereals, greenhouse tray test, sprayed at 3-leaf stage
- Format: in vivo
- MEASUREMENT_PARAMETERS: 1,25 kg/ha; % of growth increment of untreated controls; read-out: Wuchsshemmung in % bei Gerste
QUANTITY_NAME: pest or weed control at 1250 g/ha
Kindly write the number and append the unit.

Before answering, review these 3 worked examples.
{"columns": ["ITEM_SMILES", "REPORTED_RESULT"],
 "data": [
  ["CCc1cccc(CC)c1-n1cncc1C(=O)NCC(=O)OC", "19%"],
  ["CCc1cccc(CC)c1-n1cncc1CO", "17%"],
  ["CCc1cccc(CC)c1-n1cncc1C(=O)NCCO", "17%"]
]}

# input Please report the recorded pest or weed control at 1250 g/ha for "CCc1cccc(CC)c1-n1cncc1C(=O)OCSC" .
# output 17%

# input Another compound: "CCc1cccc(CC)c1-n1cncc1C(=O)OC(=O)c1cncn1-c1c(CC)cccc1CC"
# output 19%

# input Another compound: "CCc1cccc(CC)c1-n1cncc1C(=O)NCC(=O)O"
# output 19%

# input Another compound: "CCc1cccc(CC)c1-n1cncc1C=O"
# output 19%

# input Another compound: "CCc1cccc(CC)c1-n1cncc1C(N)=NO"
# output 18%

# input Another compound: "CCc1cccc(CC)c1-n1cncc1C(=O)NO"
# output 21%

* * *

- System: Roggen
- ASSAY_NAME: Growth inhibition in cereals, greenhouse tray test, sprayed at 3-leaf stage
- Format: in vivo
- MEASUREMENT_PARAMETERS: 1,25 kg/ha; % of growth increment of untreated controls; read-out: Wuchsshemmung in % bei Roggen
- Text: In Schalenversuchen im Gewächshaus werden junge Getreidepflanzen (Weizen, Gerste, Roggen) im 3-Blattstadium mit erfindungsgemäßen Verbindungen in verschiedenen Wirkstoffkonzentrationen (kg/ha) tropfnaß gespritzt. […]
Classification field: Yes = pest or weed control at 1250 g/ha at or over 20%; No = pest or weed control at 1250 g/ha under 20%.

# input In plain terms: is recorded pest or weed control at 1250 g/ha at least 20% for C#CCOC(=O)c1cncn1-c1c(CC)cccc1CC [Beispiel 37] ?
# output No

# input Another compound: CCc1cccc(CC)c1-n1cncc1C(=O)NS(=O)(=O)c1ccccc1Cl [Beispiel 103]
# output No

# input Another compound: CCc1cccc(CC)c1-n1cncc1C(=O)ON=C(C)C(C)C [Beispiel 42]
# output No

# input Another compound: CCc1cccc(CC)c1-n1cncc1C(=O)OC(=O)c1cncn1-c1c(CC)cccc1CC [Beispiel 115]
# output Yes

* * *

- System: Reispflanzen
- ASSAY_NAME: Growth inhibition in paddy rice, small plots
- MEASUREMENT_PARAMETERS: Oryza sativa, 504 h, read-out: Wuchsshemmung (%)
QUANTITY_NAME: pest or weed control at 620 g/ha (%)
Numeric answer only, unit % assumed.

Before answering, review these 5 worked examples.
{"columns": ["ITEM_SMILES", "UNIT_TAG", "pest or weed control at 620 g/ha"],
 "data": [
  ["CCc1cccc(CC)c1-n1cncc1C(=O)NN(C)C", "%", 12],
  ["CCc1cccc(CC)c1-n1cncc1COCc1ccccc1C", "%", 14],
  ["C#CCOC(=O)c1cncn1-c1c(CC)cccc1CC", "%", 11],
  ["CCc1cccc(CC)c1-n1cncc1C(N)=NO", "%", 12],
  ["CCc1cccc(CC)c1-n1cncc1C(=O)OC1CCCCC1", "%", 14]
]}

# input Please report the recorded pest or weed control at 620 g/ha for "CCc1cccc(CC)c1-n1cncc1C(=O)NNC(N)=O" .
# output 14

# input Another molecule: "CCc1cccc(CC)c1-n1cncc1C(=O)NCCO"
# output 16

# input Another molecule: "CCc1cccc(CC)c1-n1cncc1C(=O)NCC#N"
# output 13

# input Another molecule: "CCc1cccc(CC)c1-n1cncc1C=NO"
# output 13

# input Another molecule: "CCOC(=O)CSC(=O)c1cncn1-c1c(CC)cccc1CC"
# output 14

# input Another molecule: "CCc1cccc(CC)c1-n1cncc1C(=O)OCSC"
# output 16

Data provenance: patent EP0185961A2
